Assay: Chromatographic hydrophobicity index (CHI) by UHPLC
Format: physicochemical
Conditions: LC/UV at pH 2.6; calculated from retention time with the calibration line
property measured: CHI

CCCCCC[n+]1cccc2ccccc21.[Br-] [Compound 5a, 1-Hexylquinolin-1-ium bromide]
36.98
CCCCCCCCCCCCCC[n+]1ccccc1.[Br-] [Compound 6e, 1-Tetradecylpyridin-1-ium bromide]
79.90
CCCCCCCCCCCC[n+]1ccn(C)c1.[Br-]
67.25
CCCCCCCCCC[P+](c1ccccc1)(c1ccccc1)c1ccccc1 [Compound 1c, Decyltriphenylphosphonium bromide]
82.58

Ask: // query CHI value for entry CCCCCCCCCCCCCC[n+]1cccc2ccccc21.[Br-] [Compound 5e, 1-Tetradecylquinolin-1-ium bromide]
Result: 88.00

Ask: Next: CCCCCCCCCCCCCCCCCC[n+]1ccccc1.[Br-] [Compound 6g, 1-Octadecylpyridin-1-ium bromide]
Result: 108.1

Ask: Please do the same for CCCCCCCCCCCCCCCC[P+](c1ccccc1)(c1ccccc1)c1ccccc1 [Compound 1f, Hexadecyltriphenylphosphonium bromide] as well.
Result: 115.5

Ask: Lookup CCCCCCCC[n+]1ccccc1.[Br-] [Compound 6b, 1-Octylpyridin-1-ium bromide]
Result: 40.78

Ask: Then what about the compound CCCCCCCCCCCCCC[n+]1ccc2ccccc2c1.[Br-] [Compound 3e, 2-Tetradecylisoquinolin-2-ium bromide] ?
Result: 87.98

Ask: Now give it for CCCCCCCCCCCCCCCCCC[n+]1ccn(C)c1.[Br-] too.
Result: 109.2

Ask: Same thing, different compound: CCCCCCCC[P+](c1ccccc1)(c1ccccc1)c1ccccc1 [Compound 1b, Octyltriphenylphosphonium bromide]
Result: 71.06

Ask: Same for CCCCCCCCCCCCCCCC[n+]1ccc2ccccc2c1.[Br-] [Compound 3f, 2-Hexadecylisoquinolin-2-ium bromide]
Result: 100.8

Ask: Proceed to CCCCCCCCCCCCCCCCCC[P+](c1ccccc1)(c1ccccc1)c1ccccc1 [Compound 1g, Octadecyltriphenylphosphonium bromide]
Result: 128.2

Ask: Param item: CCCCCCCCCCCCCCCC[n+]1ccc(C)cc1.[Br-]
Result: 96.77

Ask: // repeat for CCCCCCCCCCCCCCCC[n+]1ccccc1.[Br-] [Compound 6f, 1-Hexadecylpyridin-1-ium bromide] and report
Result: 94.47

Ask: Also, CCCCCCCCCC[n+]1cccc2ccccc21.[Br-] [Compound 5c, 1-Decylquinolin-1-ium bromide] please.
Result: 61.45

Ask: What do you have for CCCCCCCC[n+]1ccc2ccccc2c1.[Br-] [Compound 3b, 2-Octylisoquinolin-2-ium bromide] ?
Result: 50.02

---

Item-by-item account of MBC
System: S. aureus SA1199B
Assay: MIC/MBC by broth microdilution, S. aureus SA1199B
Format: cell-based
Conditions: Staphylococcus aureus
Give the value in µg/mL but do not write µg/mL after it.

Here is how some compounds turned out for MBC.
CCCCCCCCCCCCCC[P+](c1ccccc1)(c1ccccc1)c1ccccc1 [Compound 1e, Triphenyl(tetradecyl)phosphonium bromide]
2
CCCCCCCCCCCCCC[n+]1ccc(C)cc1.[Br-] [Compound 4e]
32
CCCCCCCCCCCCCC[n+]1cccc2ccccc21.[Br-] [Compound 5e, 1-Tetradecylquinolin-1-ium bromide]
8

Ask: Recorded MBC for CCCCCCCCCCCCCC[n+]1ccn(C)c1.[Br-] [Compound 2e] , please?
Result: 32

Ask: Same lookup for CCCCCCCCCCCCCC[n+]1ccccc1.[Br-] [Compound 6e, 1-Tetradecylpyridin-1-ium bromide] , please.
Result: 16

Ask: How about CCCCCCCCCCCCCC[N+](CC)(CC)CC.[Br-] [Compound 7e] ?
Result: 32

Ask: What do you get for CCCCCCCCCCCCCC[n+]1ccc2ccccc2c1.[Br-] [Compound 3e, 2-Tetradecylisoquinolin-2-ium bromide] ?
Result: 8
